Molecular target: T1, CD30-Fc (human)
T1 construct: also called extracellular domain of CD30 fused with human IgG Fc
T1 chain: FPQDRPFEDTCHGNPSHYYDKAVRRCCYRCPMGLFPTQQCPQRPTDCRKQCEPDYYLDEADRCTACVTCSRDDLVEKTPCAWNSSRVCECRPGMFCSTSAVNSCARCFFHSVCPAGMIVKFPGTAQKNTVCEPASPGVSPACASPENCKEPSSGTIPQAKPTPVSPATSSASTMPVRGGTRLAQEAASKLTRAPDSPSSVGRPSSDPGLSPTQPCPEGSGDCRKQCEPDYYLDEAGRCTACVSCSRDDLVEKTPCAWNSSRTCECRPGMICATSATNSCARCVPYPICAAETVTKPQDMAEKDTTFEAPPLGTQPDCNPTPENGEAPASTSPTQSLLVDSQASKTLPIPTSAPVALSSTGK
Assay: affinity of the MAb; ELISA using CD30-Fc
Reported Endpoint: Kd (nM)
Provide the reading as a plain figure in nM.

[
  {
    "Binder": "T427 MAb (antibody, V domains shown) VH: QVQLQQPGTELVRPGASVKLSCKASGFSFTSYWMNWVKQRPGQGLEWIGMIHPSDSETRLNQKFKDRATLTVDKSSSTAYMQLSSPTSEDSAVYYCASEMDYYFAMDYWGQGTSVTVSS VL: DIVLTQSPTSLAVSLGQRATISCRASESVDSYGNSFMHWFQQKPGQPPKLLIYRASNLESGIPARFSGSGSWTDFTLTINPVEADDVATYYCQQSNEDPRTFGGGTKLEIKR",
    "Output Unit": "nM",
    "Meas Value": 0.9
  }
]

Below: the item to evaluate.
Input line: I have this binder here, T420 MAb (antibody, V domains shown) VH: QVQLQQSGAELAKPGASVKMSCKASGYTFTSYWMHWVKQRPGQDLEWIGYINPSTDYTDYNQKFKDKATLTADKSSSTAYMQLSSLTSEDSAVYYCATRHYGSSYGFAYWGQGTLVTVSA VL: DIVMTQSHKFMSTSVGDRVSITCKASQDVSTAVAWYQQKPGQSPKLLIYWASTRHTGVPDRFTGSGSGTDYSLTISSVQAEDLAVYYCQQHYRTPFTFGSGTKLEIKR , and I need its recorded Kd.
Output line: 1.9
